- Test system: ddy mouse (Slc:ddy)
- assay.details: Oral acute toxicity test
- Type: in vivo
- Set-up: key: 0/3 means none of 3 recipient animals died; 1/3 means one out of 3 recipient animals died; 2/3 means 2 out of 3 recipient animals died; 3/3 means all 3 recipient animals died
- condition.summary: female ddy mouse, oral 30 mg/kg, mortality investigated for 7 days
# reported Test result Female (mortality, animals died out of 3); entries follow

Consider the worked cases shown below.
> print(dat)
                                   compound  value.reported
1  CC(CCCCOC(=O)c1cc2ccccc2s1)=C(F)F [Compound 3]             0/3
2  Cc1nc(-c2ccccc2)ncc1C(=O)OCCC=C(F)F [Reference compound C, reference compound]             3/3
3  CC(CCOC(=O)c1sc(-c2ccccc2)nc1C)=C(F)F [Compound 63]             0/3
4  O=C(OCCCCC=C(F)F)c1ccc(Cl)nc1 [Reference compound A, reference compound]             3/3

Ask: Indicate its recorded Test result Female (mortality, animals died out of 3); the compound in question is CC(CCOC(=O)c1cnc(N(C)c2ccccc2)nc1C)=C(F)F [Compound 119]
Result: 0/3

Ask: Determine its reported Test result Female (mortality, animals died out of 3): CCCCOc1ccc(C(=O)OCCC(C)=C(F)F)cn1 [Compound 77]
Result: 0/3

Ask: For the compound CC(CCOC(=O)c1cc2ccccc2s1)=C(F)F [Compound 18] , give its measured Test result Female (mortality, animals died out of 3) value.
Result: 0/3

Ask: State its Test result Female (mortality, animals died out of 3) for this compound: CC(CCCCOC(=O)c1sc(-c2ccccc2)nc1C)=C(F)F [Compound 29]
Result: 0/3

Ask: // fetch Test result Female (mortality, animals died out of 3) given entry CCCCOc1ncc(C(=O)OCCC(C)=C(F)F)c(C)n1 [Compound 105]
Result: 0/3

Ask: For O=C(OCCCCC=C(F)F)c1cc2ccccc2s1 [Reference compound D, reference compound] , write its Test result Female (mortality, animals died out of 3).
Result: 3/3
